Hello, the source for this data is patent US20190092852A1, in case you need it.

- subject_of_test: T1, cyno IL-33 N-His (cynomolgus monkey)
- T1 chain: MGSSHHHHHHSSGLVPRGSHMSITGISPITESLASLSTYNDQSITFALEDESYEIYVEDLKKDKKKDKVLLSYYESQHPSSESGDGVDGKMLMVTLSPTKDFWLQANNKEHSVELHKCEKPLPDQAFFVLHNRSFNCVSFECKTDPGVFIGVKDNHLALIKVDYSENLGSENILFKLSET
- protocol_details: SPR Biacore T200, 37 C
Cut-off 0.002 s⁻¹ on koff, inclusive. At or above means fulfilled; below means not fulfilled.

Worked examples, 2 binders total:
H4H9671P (antibody, V domains shown) VH: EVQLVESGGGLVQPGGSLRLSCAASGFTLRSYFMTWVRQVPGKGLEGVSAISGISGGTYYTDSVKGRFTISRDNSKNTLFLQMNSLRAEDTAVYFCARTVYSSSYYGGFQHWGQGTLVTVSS VL: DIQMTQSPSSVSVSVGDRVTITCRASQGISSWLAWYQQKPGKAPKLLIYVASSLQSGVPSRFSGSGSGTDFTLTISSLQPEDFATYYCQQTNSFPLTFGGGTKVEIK: fulfilled
H4H9664P (antibody, V domains shown) VH: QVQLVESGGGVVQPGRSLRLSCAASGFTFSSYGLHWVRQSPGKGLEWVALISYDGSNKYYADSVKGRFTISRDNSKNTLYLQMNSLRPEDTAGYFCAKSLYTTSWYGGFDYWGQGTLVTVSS VL: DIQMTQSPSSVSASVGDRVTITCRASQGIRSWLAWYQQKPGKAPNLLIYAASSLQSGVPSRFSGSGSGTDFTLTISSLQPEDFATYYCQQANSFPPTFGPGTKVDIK: fulfilled

Decide: is the reported value of koff for H1M9566N (antibody, IgG1, V domains shown, also called RG2) VH: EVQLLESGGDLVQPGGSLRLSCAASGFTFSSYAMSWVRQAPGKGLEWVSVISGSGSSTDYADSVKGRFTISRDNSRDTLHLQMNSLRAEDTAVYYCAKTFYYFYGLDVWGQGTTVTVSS VL: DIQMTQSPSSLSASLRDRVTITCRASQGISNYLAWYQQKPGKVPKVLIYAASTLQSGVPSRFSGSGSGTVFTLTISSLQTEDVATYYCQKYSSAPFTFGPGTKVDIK equal to or greater than 0.002 s⁻¹?
not fulfilled

Could you verify whether the entry H4H9659P (antibody, IgG4, V domains shown, also called RG7) VH: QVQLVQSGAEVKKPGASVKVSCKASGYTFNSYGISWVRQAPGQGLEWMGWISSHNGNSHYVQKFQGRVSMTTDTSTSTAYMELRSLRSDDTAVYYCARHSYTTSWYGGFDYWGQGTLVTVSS VL: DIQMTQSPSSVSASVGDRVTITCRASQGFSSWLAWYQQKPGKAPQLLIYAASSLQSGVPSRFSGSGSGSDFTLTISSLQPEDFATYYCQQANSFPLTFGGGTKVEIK shows koff of no less than 0.002 s⁻¹?
not fulfilled
